Tested on: T-47D
Assay: MTT test, cytotoxic activity on non-clonogenic cell lines
Format: cell-based
Assay setup: Homo sapiens, T47D; 10^−5 M, 72 hours of incubation, control condition = 100%, mean value; read-out: mean optical density as percentage of control, T-47D
Just a reminder that ties go to N: only viability at 10 µM strictly below 90% counts as Y.

Task item: Does the reported viability at 10 µM of "COc1ccc(OC)c2c1c(=O)c(-c1ccccc1)cn2C" stay below 90%?
Reply: Y

---

Let's look at some compounds and their measured viability at 10 µM.
Tested on: A-427
Assay: MTT test, cytotoxic activity on non-clonogenic cell lines
Assay type: cell-based
Assay setup: Homo sapiens, 10^−5 M, 72 hours incubation, MTT, mean value, read-out: mean optical density, expressed as percentage relative to the mean optical density under the control condition (100%)
The response must be a number in % with no trailing unit.

Reference set, count: 3
Entry CCOC(=O)Cn1cc(-c2ccc(OC)cc2)c(=O)c2ccc(OC)cc21 [CRL8465] , A-427 data, viability at 10 µM value: 85.4

For the compound CC(=O)Oc1ccc(-c2cn(C)c3c(OC(C)=O)ccc(OC(C)=O)c3c2=O)cc1 [CRL8460] , the measured viability at 10 µM on A-427 was 24.9

The compound COc1ccc(-c2cn(C)c3cc(OC)cc(N)c3c2=O)cc1 [CRL8461] , when measured on A-427, yielded viability at 10 µM of 90.5

Next:
Readout viability at 10 µM for COc1ccc(-c2cn(CCCC#N)c3cc(OC)ccc3c2=O)cc1 [CRL8470] , test system A-427, was 103

Param item: CCN(CC)C(=O)Cn1cc(-c2ccc(OC)cc2)c(=O)c2ccc(OC)cc21 [CRL8466] ; param system: A-427; output viability at 10 µM: 97.5
